- System: HCT-116
- experimental-details: Concentration required to inhibit the HCT116 cell growth by 50%.
- Assay type: functional, cell-based
- condition-context: Homo sapiens
pIC50: −log10 of the molar value. Square brackets hold non-standard residues; d marks the D form. Peptide text beside a SMILES is read from it. Aoe = N[C@@H](CCCCCC(=O)[C@@H]1CO1)C(=O)O
Class field: derived from pIC50; ranges bottom bin = under 6, middle bin = from 6 up to 7, top bin = 7 and over

Field: example entries. Status: answers known.
[
  {
    "molecule": "O=C1N[C@@H](Cc2ccccc2)C(=O)N2CCC[C@@H]2C(=O)N[C@@H](CCCCCC(=O)[C@@H]2CO2)C(=O)N[C@H]1Cc1ccccc1 [TRAPOXIN B] (cyclo(FF[dP][Aoe]))",
    "label": "top bin"
  },
  {
    "molecule": "O=C(CCCCCCC(=O)Nc1ccncc1)NO",
    "label": "bottom bin"
  },
  {
    "molecule": "CN(C)c1ccc(C(=O)NCCCCCCCC(=O)NO)cc1",
    "label": "middle bin"
  },
  {
    "molecule": "O=C(CCCCCCC(=O)Nc1ccccn1)NO",
    "label": "bottom bin"
  },
  {
    "molecule": "COc1ccc(NC(=O)CCCCCCC(=O)NO)cc1",
    "label": "bottom bin"
  },
  {
    "molecule": "O=C(CCCCCCC(=O)Nc1cccnc1)NO [PYROXAMIDE]",
    "label": "bottom bin"
  }
]

Ask: Sort into band: CC(/C=C/C(=O)NO)=C\[C@@H](C)C(=O)c1ccc(N(C)C)cc1
Result: top bin

Ask: Sort into band: O=C(O)CCCCCCC(=O)c1ccccc1
Result: bottom bin

Ask: Sort into band: CN(C)c1ccc(C(=O)NCCCCCCC(=O)NO)cc1
Result: middle bin

====

# reported IC50; entries follow
- assay-system: Histone deacetylase
- experimental-details: Concentration required to inhibit the partially purified HDAC enzyme by 50% obtained from H1299 cell lysate
- Type: functional, cell-based, Homo sapiens

[
  {
    "entry-smiles": "O=C(O)CCCCCCC(=O)c1ccccc1",
    "IC50": "> 10 µM"
  }
]

Ask: I'm curious: which IC50 was measured for COc1ccc(NC(=O)CCCCCCC(=O)NO)cc1 tested on Histone deacetylase?
Result: > 10 µM

Ask: I'm curious: which IC50 was measured for O=C(CCCCCCC(=O)Nc1ccncc1)NO tested on Histone deacetylase?
Result: > 10 µM

Ask: I'm curious: which IC50 was measured for O=C(CCCCCCNC(=O)c1ccccc1)NO tested on Histone deacetylase?
Result: > 10 µM

Ask: I'm curious: which IC50 was measured for CN(C)c1ccc(C(=O)NCCCCCCC(=O)NO)cc1 tested on Histone deacetylase?
Result: 1.62 µM

Ask: I'm curious: which IC50 was measured for CN(C)c1ccc(C(=O)NCCCCCCCC(=O)NO)cc1 tested on Histone deacetylase?
Result: 2.18 µM

====

- Test system: T-24
- experimental-details: Concentration required to inhibit the bladder T24 cell growth by 50%,P53 status of cell line used was mutant.
- condition-context: Homo sapiens
property-measured: IC50 (µM)
Give a bare numeral; the unit µM is implied.

Ask: May I ask what IC50 has been recorded for CN(C)c1ccc(C(=O)NCCCCCCC(=O)NO)cc1 ?
Result: 3.8
